System: T1, mouse IL-2Rγ (mouse, UniProt P34902 23-263)
T1 construct: also called mo IL-2R
T1 sequence (looked up): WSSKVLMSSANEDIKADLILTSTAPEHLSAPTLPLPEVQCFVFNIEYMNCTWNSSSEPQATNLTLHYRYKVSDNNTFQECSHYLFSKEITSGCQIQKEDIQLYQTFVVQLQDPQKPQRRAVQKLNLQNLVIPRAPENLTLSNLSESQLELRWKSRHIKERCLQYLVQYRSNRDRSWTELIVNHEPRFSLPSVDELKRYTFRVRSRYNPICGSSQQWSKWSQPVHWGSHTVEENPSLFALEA
Measurement Description: SPR off-rate ranking, periplasmic extract on immobilised protein
Property Measured: koff (s⁻¹)

[
  {
    "Binder": "FJ1427_P035MP04A01 (VHH, VHH in periplasmic extract; also called clone nr) VHH: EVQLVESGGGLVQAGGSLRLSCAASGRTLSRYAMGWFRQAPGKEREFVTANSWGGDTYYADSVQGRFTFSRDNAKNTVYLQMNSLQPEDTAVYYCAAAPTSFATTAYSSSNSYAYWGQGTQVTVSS",
    "Experimental Result": 0.132
  },
  {
    "Binder": "FJ1427_P035MP04H03 (VHH, VHH in periplasmic extract; also called clone nr) VHH: QLQLVESGGGLVQAGGSLRLSCAASGRTLSRYAMGWFRQAPGKEREFVAADSWGGDTFYADSVEGRFTFSRDNAKNAAYLQMNSLQPEDTATYYCAGAPTSFATTAYSSSNSYRYWGQGTQVTVSS",
    "Experimental Result": 0.0297
  },
  {
    "Binder": "FJ1427_P035MP04A02 (VHH, VHH in periplasmic extract; also called clone nr) VHH: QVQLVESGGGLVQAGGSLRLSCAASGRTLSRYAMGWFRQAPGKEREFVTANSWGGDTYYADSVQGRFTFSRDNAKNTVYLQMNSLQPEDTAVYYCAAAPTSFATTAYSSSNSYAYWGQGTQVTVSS",
    "Experimental Result": 0.126
  },
  {
    "Binder": "37-MP07F09 (VHH, VHH in periplasmic extract; also called FJ1427_P035MP07F09; clone nr) VHH: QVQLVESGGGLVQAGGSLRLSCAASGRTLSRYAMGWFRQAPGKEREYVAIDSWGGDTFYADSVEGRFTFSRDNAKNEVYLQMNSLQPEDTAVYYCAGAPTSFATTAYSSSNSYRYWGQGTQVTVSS",
    "Experimental Result": 0.007
  },
  {
    "Binder": "34-MP04A12 (VHH, VHH in periplasmic extract; also called FJ1427_P035MP04A12; clone nr) VHH: QVQLVESGGGLVQAGSSLRLSCAASGRTLSRLAMGWFRQAPGKEREFVAVNSWGGDTFYADSVEGRFTYSRDNAKSAVYLQMNSLQPEDTAVYYCAAAPTSFATTAYSSSNSYAYWGQGAQVTVSS",
    "Experimental Result": 0.00809
  },
  {
    "Binder": "38-MP07A11 (VHH, VHH in periplasmic extract; also called FJ1427_P035MP07A11; clone nr) VHH: QVQLVESGGGLVQAGGSLRLSCAASGRSLSRDAMGWFRQAPGKEREFVAVMSWGGDTFYTDSVEGRFTFSRDNAKNAVYLEMNDLQPEDTAVYYCAAAPTSFATTAYSSSNSYSYWGRGTQVTVSS",
    "Experimental Result": 0.0149
  },
  {
    "Binder": "FJ1427_P035MP04E08 (VHH, VHH in periplasmic extract; also called clone nr) VHH: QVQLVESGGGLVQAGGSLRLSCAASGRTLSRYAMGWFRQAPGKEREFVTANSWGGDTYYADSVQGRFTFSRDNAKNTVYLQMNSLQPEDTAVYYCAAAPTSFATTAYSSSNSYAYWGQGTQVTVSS",
    "Experimental Result": 0.122
  },
  {
    "Binder": "FJ1427_P035MP04E11 (VHH, VHH in periplasmic extract; also called clone nr) VHH: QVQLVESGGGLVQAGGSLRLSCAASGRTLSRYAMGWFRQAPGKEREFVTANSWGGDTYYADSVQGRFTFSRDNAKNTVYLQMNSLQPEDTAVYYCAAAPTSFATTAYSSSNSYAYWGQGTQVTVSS",
    "Experimental Result": 0.117
  }
]
